Origin of the recorded values: ChEMBL document CHEMBL1149231

Items are presented alongside their recorded Efficacy.
target: GABA-A receptor; alpha-3/beta-3/gamma-2 (Homo sapiens) (UniProt P18507+P28472+P34903); test: Efficacy was determined against Gamma-aminobutyric acid A receptor, alpha 3 expressed in Xenopus oocytes; assay type: cell-based; settings: Oocyte

{"columns": ["Compound", "Target under test", "Result unit", "Efficacy"],
 "data": [
  ["Oc1c2cnc3c(c2nn1-c1ccc(OC(F)F)cc1)CCCC3", "GABA-A receptor; alpha-3/beta-3/gamma-2 (Homo sapiens) (UniProt P18507+P28472+P34903)", "%", 56],
  ["Oc1c2c(nn1-c1ccc(Cl)cc1)C1CN(CC3CC3)CCC1N=C2 (stereo not given)", "GABA-A receptor; alpha-3/beta-3/gamma-2 (Homo sapiens) (UniProt P18507+P28472+P34903)", "%", 123],
  ["Oc1c2c(nn1-c1ccc(Cl)cc1)C1CCCC1N=C2 (stereo not given)", "GABA-A receptor; alpha-3/beta-3/gamma-2 (Homo sapiens) (UniProt P18507+P28472+P34903)", "%", 51],
  ["Oc1c2cnc3c(c2nn1-c1ccc(OC2CC2)cc1)CCCC3", "GABA-A receptor; alpha-3/beta-3/gamma-2 (Homo sapiens) (UniProt P18507+P28472+P34903)", "%", 62],
  ["Oc1c2cnc3c(c2nn1-c1ccc(F)cc1)CCCC3", "GABA-A receptor; alpha-3/beta-3/gamma-2 (Homo sapiens) (UniProt P18507+P28472+P34903)", "%", 33],
  ["O=c1c2c[nH]c3c(c-2nn1-c1ccc(Cl)cc1)CCCC3", "GABA-A receptor; alpha-3/beta-3/gamma-2 (Homo sapiens) (UniProt P18507+P28472+P34903)", "%", 93],
  ["Oc1c2c(nn1-c1ccc(OC(F)F)cc1)C1CSCCC1N=C2 (stereo not given)", "GABA-A receptor; alpha-3/beta-3/gamma-2 (Homo sapiens) (UniProt P18507+P28472+P34903)", "%", 25],
  ["Oc1c2c(nn1-c1ccc(Cl)cc1)C1CCCCCC1N=C2 (stereo not given)", "GABA-A receptor; alpha-3/beta-3/gamma-2 (Homo sapiens) (UniProt P18507+P28472+P34903)", "%", 87],
  ["Oc1c2cnc3c(c2nn1-c1ccc(OC2CCC2)cc1)CCCC3", "GABA-A receptor; alpha-3/beta-3/gamma-2 (Homo sapiens) (UniProt P18507+P28472+P34903)", "%", 36],
  ["Oc1c2c(nn1-c1ccc(OC(F)F)cc1)C1COCCC1N=C2 (stereo not given)", "GABA-A receptor; alpha-3/beta-3/gamma-2 (Homo sapiens) (UniProt P18507+P28472+P34903)", "%", 32],
  ["Oc1c2cnc3c(c2nn1-c1ccccn1)CCCC3", "GABA-A receptor; alpha-3/beta-3/gamma-2 (Homo sapiens) (UniProt P18507+P28472+P34903)", "%", -7],
  ["Oc1c2cnc3c(c2nn1-c1ccc(OC(F)(F)F)cc1)CCCC3", "GABA-A receptor; alpha-3/beta-3/gamma-2 (Homo sapiens) (UniProt P18507+P28472+P34903)", "%", 35],
  ["O=C(Cc1cccnc1)N1CCC2N=Cc3c(nn(-c4ccc(Cl)cc4)c3O)C2C1 (stereo not given)", "GABA-A receptor; alpha-3/beta-3/gamma-2 (Homo sapiens) (UniProt P18507+P28472+P34903)", "%", 2.3],
  ["Oc1c2c(nn1-c1ccc(Cl)cc1)C1CN(Cc3ccncc3)CCC1N=C2 (stereo not given)", "GABA-A receptor; alpha-3/beta-3/gamma-2 (Homo sapiens) (UniProt P18507+P28472+P34903)", "%", 199],
  ["COc1ccc(-n2nc3c4c(ncc3c2O)CCCC4)cc1", "GABA-A receptor; alpha-3/beta-3/gamma-2 (Homo sapiens) (UniProt P18507+P28472+P34903)", "%", 55]
]}
